Target: E. coli MurD (Escherichia coli, UniProt P14900)
Sequence (P14900 whole entry): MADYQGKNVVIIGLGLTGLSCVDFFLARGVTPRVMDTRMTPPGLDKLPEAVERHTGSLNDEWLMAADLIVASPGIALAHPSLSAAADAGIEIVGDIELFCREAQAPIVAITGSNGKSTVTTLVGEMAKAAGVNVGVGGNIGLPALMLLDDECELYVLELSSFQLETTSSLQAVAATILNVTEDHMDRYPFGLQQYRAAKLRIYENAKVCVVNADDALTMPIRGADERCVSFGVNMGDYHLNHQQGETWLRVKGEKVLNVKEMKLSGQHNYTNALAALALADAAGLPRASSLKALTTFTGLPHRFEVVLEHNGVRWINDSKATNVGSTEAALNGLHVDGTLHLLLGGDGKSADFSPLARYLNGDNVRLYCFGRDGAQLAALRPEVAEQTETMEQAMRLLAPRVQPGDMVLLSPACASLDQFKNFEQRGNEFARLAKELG
Assay: biochemical
Details: 0.25 h, Table S1, PKIS screening; read-out: RA [%] at 100 µM MurD
Protocol: Inhibition of the Mur ligases was determined using the malachite green assay, with slight modifications. In all cases, the final concentration of DMSO was 5% (v/v). After incubation for 15 min at 37 °C, the enzyme reaction was terminated by addition of 100 µM Biomol green reagent, and the absorbance was measured at 650 nm after 5 min. […] Residual activities were calculated with respect to control assays without the tested compounds, but with the 5% DMSO carrier. […]
Kindly state remaining activity at 100 µM for each of the entries shown.
State the result as a value with its unit after it.

In [3]: df
Out[3]:
                                   compound                    observable  result
0  CC1=C(C(=O)Nc2ccc3[nH]ncc3c2)C(c2ccc(F)cc2)NC(c2ccc(C(F)(F)F)nc2)=N1 (stereo not shown) [GSK317354A]  remaining activity at 100 µM     96%
1  COc1ccc(-c2nn3ncccc3c2-c2ccnc(Nc3cccc(C(F)(F)F)c3)n2)cc1  remaining activity at 100 µM     80%
2  COc1ccc2cc(-c3c(-c4ccncc4)nc(-c4ccc(S(C)(=O)=O)cc4C)n3C)ccc2c1  remaining activity at 100 µM     69%

Query block: Give the reported remaining activity at 100 µM for this compound. O=C1Nc2ccccc2/C1=C/Nc1ccc2[nH]c(=O)[nH]c2c1 [GW284408X]
Result block: 86%
